experiment: gradient 5% acetonitrile 3 min, to 50% in 2 min, to 85% in 15 min, held 3 min, 100 µL/min; settings: column: Zorbax Extend-C18 2.1 x 50 mm; eluents: water / acetonitrile, 0.1% formic acid
Cut-off 900 s on RP-LC retention time, inclusive. At or above means class 1; below means class 0.

Recorded results for 10 molecules are shown here.
# Molecule, Group label
rows = [
    ("O=c1n(Cc2ccccc2)nc2c(S(=O)(=O)N3CCOCC3)cccn12", "class 0"),
    ("Cc1ccc(CN2C(=O)NC3(CCN(C(=O)c4ccc5c(c4)OCO5)CC3)C2=O)cc1", "class 0"),
    ("Cc1cc2c(cc1NC(=O)CCc1ccccc1)n(C)c(=O)n2C", "class 0"),
    ("O=S(=O)(c1ccc(-c2cc(C(F)(F)F)on2)o1)N1CCN(c2ncccn2)CC1", "class 1"),
    ("c1ccc2nc(OCCN3CC3)ccc2c1", "class 0"),
    ("CCOc1ccc(S(=O)(=O)N2CCCC(C(=O)NC(C)C)C2)cc1 (stereo unspecified)", "class 0"),
    ("CC(C)OCCCNC(=O)Cn1nc2c(cc1=O)CCCCC2", "class 0"),
    ("CCn1cc(CCN2CCC(C(=O)Nc3ccc4c(c3)OCCO4)CC2)c2cccnc21", "class 0"),
    ("CCc1ccc(NC(=O)C2CCCN(S(=O)(=O)c3cc(-c4noc(CC)n4)cs3)C2)cc1 (stereo unspecified)", "class 1"),
    ("O=c1ccc(-c2ccc(F)cc2)nn1CCc1nc(-c2ccccc2Br)no1", "class 1"),
]

Say whether CCCc1ccc(S(=O)(=O)N2CCC(n3cnc4ccc(C)cc4c3=O)CC2)cc1 shows RP-LC retention time of 900 s or more.
class 1

Say whether CCc1cc(=O)n(CC(=O)Nc2cccc(C(C)C)c2)c(N2CCOCC2)n1 shows RP-LC retention time of 900 s or more.
class 0

Say whether Cc1noc(C)c1C1CCCN1C(=O)Cc1ccccc1Cl (stereo unspecified) shows RP-LC retention time of 900 s or more.
class 0

---

experiment: gradient 5% acetonitrile 3 min, to 50% in 2 min, to 85% in 15 min, held 3 min, 100 µL/min; conditions: column: Zorbax Extend-C18 2.1 x 50 mm; eluents: water / acetonitrile, 0.1% formic acid
Would you mind telling me the reported RP-LC retention time of each entry?
Numbers only, in s.

As a guide, the following entries are already answered.
# Structure string, Observed measurement
measured = [
    ("O=C(Nc1ccccc1Cl)Nc1c(-c2ccc(F)cc2)nc2ccccn12", 695),
    ("Cc1ccc(F)cc1NS(=O)(=O)c1cc2n(c1)CCCN(C)C2=O", 716),
    ("CCSc1ccc(-c2cccc(NC(=O)CC)c2)nn1", 787),
    ("CN1C(=O)C2(CCN(C(=O)NC3CCCCC3)CC2)c2ccccc21", 807),
]

Moving on to the next molecule.
Look up RP-LC retention time of O=C(CSc1nnc2sc3ccccc3n12)Nc1ccc2c(c1)OCO2 and report it.
691

---

Would you mind telling me the reported RP-LC retention time of each entry?
assay: gradient 5% acetonitrile 3 min, to 50% in 2 min, to 85% in 15 min, held 3 min, 100 µL/min; details: column: Zorbax Extend-C18 2.1 x 50 mm; eluents: water / acetonitrile, 0.1% formic acid
Give bare numbers, in s.

As a guide, the following entries are already answered.
# Compound, RP-LC retention time [s]
measured = [
    ("CCOC(=O)c1nc(N2CCN(c3ccccc3)CC2)c2ccccc2n1", 893),
    ("O=C(Nc1nc(-c2ccccc2)c(-c2ccccc2)o1)NC1CCCCC1", 1320),
    ("O=C(Nc1ccc(F)c(Cl)c1)N1CCCC(Cn2c(C3CC3)nc3cccnc32)C1 (stereo not drawn)", 744),
]

For every item below, please supply its RP-LC retention time.
1. Cc1nn(CC(=O)N2CCC(C)CC2)c(=O)c2nc(-c3ccccc3)sc12
2. Cn1c(=O)c2c3c(cnc2n(C)c1=O)C(=O)CC(c1cccc(Cl)c1)C3 (stereo not drawn)
3. Cc1ccc(N(C)S(=O)(=O)c2ccccc2-c2nc(-c3ccccc3)no2)cc1
4. CCOc1ccc(NC(=O)Cc2cn(C)c3ncccc23)cc1
5. COc1cc(CN2CCC[C@H]2c2nc(C3CCOCC3)n[nH]2)cc(OC)c1
6. CCCCN(C)C(=O)Cn1c(=O)c2cnc(-c3ccc(Cl)cc3)nc2n(CC)c1=O
7. COC(=O)c1cnc2nc(C)ccc2c1Nc1ccc(OC)cc1

1: 872; 2: 1020; 3: 1200; 4: 712; 5: 593; 6: 1190; 7: 647

For every item below, please supply its RP-LC retention time.
1. O=P1(N(CCCl)CCCl)NCCCO1 (stereo not drawn)
2. O=C(NCCCN1CCOCC1)c1cc2occc2c(Nc2ccccc2)n1
3. Cn1nc(C(=O)NCc2cccs2)ccc1=O
4. Cc1nnc(-c2coc(S(=O)(=O)N3CCCCC3)c2)o1
5. CC(=O)Nc1cc2c(cc1Sc1ccc(Cl)cc1)n(C)c(=O)n2C

724
644
632
767
806

For every item below, please supply its RP-LC retention time.
1. Cc1ccc(Nc2nc3ccncc3n(C(C)C)c2=O)cc1C
2. CC(=O)c1ccc(N2CCN(C(=O)c3nnn4c3COC(c3ccc(F)cc3)C4)CC2)cc1 (stereo not drawn)
3. CC(C)(C)OC(=O)Nc1cnc(C(=O)O)cn1

1. 716
2. 914
3. 625

Entry source: the METLIN SMRT retention time set (Domingo-Almenara et al. 2019)
